B1: 6NMW (parent)
chain: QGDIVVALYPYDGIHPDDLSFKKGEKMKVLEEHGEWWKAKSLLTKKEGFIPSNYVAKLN

Variants of: B1
Test: folding stability dG (cDNA display proteolysis); higher = more stable
Settings: PBS, room temperature
I would appreciate it if you labelled entries yes when folding stability dG is 3 kcal/mol or higher, otherwise no.

Worked cases, answers included:
{"Mut": "L58F", "Label Value": "yes"}
{"Mut": "K40T", "Label Value": "no"}
{"Mut": "D3F", "Label Value": "yes"}
{"Mut": "M27W", "Label Value": "no"}
{"Mut": "V6N", "Label Value": "no"}
{"Mut": "N59Y", "Label Value": "yes"}

Quick check: does Y54P have folding stability dG greater than or equal to 3 kcal/mol?
no

Quick check: does K26Q have folding stability dG greater than or equal to 3 kcal/mol?
yes

Quick check: does G2V have folding stability dG greater than or equal to 3 kcal/mol?
yes

Quick check: does K26V have folding stability dG greater than or equal to 3 kcal/mol?
yes

Quick check: does G24H have folding stability dG greater than or equal to 3 kcal/mol?
no

Quick check: does G24Q have folding stability dG greater than or equal to 3 kcal/mol?
no

The measurements presented in this section are drawn from the MegaScale stability set (Tsuboyama et al. 2023).
